Taken from patent US20260184725A1.

# TARGET_OR_TEST_SYSTEM: EGFR^WT (Homo sapiens, UniProt P00533)
# Construct: purchased Eurofins
# Sequence (P00533 25-1210): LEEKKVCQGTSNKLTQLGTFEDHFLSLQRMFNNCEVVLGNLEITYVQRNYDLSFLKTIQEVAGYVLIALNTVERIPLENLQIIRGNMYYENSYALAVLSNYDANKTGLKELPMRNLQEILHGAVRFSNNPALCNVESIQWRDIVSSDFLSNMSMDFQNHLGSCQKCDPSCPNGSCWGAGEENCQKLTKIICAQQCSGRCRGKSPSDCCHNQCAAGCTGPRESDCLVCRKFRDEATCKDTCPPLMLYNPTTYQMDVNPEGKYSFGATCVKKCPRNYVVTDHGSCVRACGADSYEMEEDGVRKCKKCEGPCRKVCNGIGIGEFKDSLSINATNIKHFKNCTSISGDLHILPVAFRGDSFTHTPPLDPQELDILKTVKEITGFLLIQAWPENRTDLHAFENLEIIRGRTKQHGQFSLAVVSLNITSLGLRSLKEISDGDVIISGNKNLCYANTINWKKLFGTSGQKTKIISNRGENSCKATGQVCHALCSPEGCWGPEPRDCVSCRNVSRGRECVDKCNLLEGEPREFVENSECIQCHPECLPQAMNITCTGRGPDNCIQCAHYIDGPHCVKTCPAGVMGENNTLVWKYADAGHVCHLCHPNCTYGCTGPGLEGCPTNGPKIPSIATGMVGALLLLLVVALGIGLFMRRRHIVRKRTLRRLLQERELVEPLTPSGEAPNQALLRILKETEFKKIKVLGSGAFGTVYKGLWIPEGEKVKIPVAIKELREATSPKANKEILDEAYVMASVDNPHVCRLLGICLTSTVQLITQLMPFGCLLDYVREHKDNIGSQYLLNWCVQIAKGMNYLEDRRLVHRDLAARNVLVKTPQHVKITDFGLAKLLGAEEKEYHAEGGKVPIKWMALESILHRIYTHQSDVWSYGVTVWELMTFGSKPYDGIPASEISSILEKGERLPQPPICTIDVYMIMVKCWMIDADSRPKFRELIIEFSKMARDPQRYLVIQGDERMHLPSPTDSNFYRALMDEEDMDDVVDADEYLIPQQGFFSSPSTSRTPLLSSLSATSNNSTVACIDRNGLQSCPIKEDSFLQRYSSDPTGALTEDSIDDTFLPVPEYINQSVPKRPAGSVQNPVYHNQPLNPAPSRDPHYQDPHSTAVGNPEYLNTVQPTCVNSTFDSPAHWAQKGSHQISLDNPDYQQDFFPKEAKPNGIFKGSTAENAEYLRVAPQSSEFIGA
# ASSAY_NOTES: ELISA kinase activity inhibition, wild-type EGFR
# Assay type: biochemical
# APPLIED_CONDITIONS: ATP 5 μM, read-out: The average IC50 value (nM) for inhibiting the activity of different tyrosine kinases, EGFR^WT
ASSAY_READOUT: IC50

INSERT INTO measurements (compound, assay_readout, measured) VALUES
  ('CCS(=O)(=O)n1cc2c3ccc(cc31)OCCCn1cc(cn1)-c1cc(cc(C=C(C)C)c1N1CCOCC1)Nc1ncc(Cl)c-2n1', 'IC50', '> 1000 nM'),
  ('CCS(=O)(=O)n1cc2c3ccc(cc31)OCCCn1cc(cn1)-c1cc(c(OC)cc1N1CCOC(C)C1)Nc1nccc-2n1 (centres unmarked)', 'IC50', '146 nM'),
  ('CCS(=O)(=O)n1cc2c3ccc(cc31)OCCCn1cc(cn1)-c1cc(cc(CC(C)C)c1N1CCOCC1)Nc1ncc(Cl)c-2n1', 'IC50', '> 1000 nM'),
  ('CCS(=O)(=O)n1cc2c3ccc(cc31)OCCCn1ccc(n1)-c1cc(c(C(C)C)cc1N1CCOCC1)Nc1nccc-2n1', 'IC50', '> 1000 nM'),
  ('Cc1cc(N2CCOCC2)c2cc1Nc1ncc(Cl)c(n1)-c1cn(C)c3cc(ccc13)OCCCn1cc-2cn1', 'IC50', '> 1000 nM'),
  ('CCS(=O)(=O)n1cc2c3ccc(cc31)OCCCn1cc(cn1)-c1cc(cc(/C=C/C(C)(C)C)c1N1CCOCC1)Nc1ncc(Cl)c-2n1', 'IC50', '> 1000 nM'),
  ('CCS(=O)(=O)n1cc2c3ccc(cc31)OCCCn1cc(cn1)-c1cc(ccc1N1CCOCC1)Nc1nccc-2n1', 'IC50', '111 nM'),
  ('CCc1cc(N2CCOCC2)c2cc1Nc1nccc(n1)-c1cn(S(=O)(=O)CC)c3cc(ccc13)OCCCn1ccc-2n1', 'IC50', '> 1000 nM'),
  ('CCOc1cc(N2CCOCC2)c2cc1Nc1nccc(n1)-c1cn(S(=O)(=O)CC)c3cc(ccc13)OCCCn1cc-2cn1', 'IC50', '186 nM'),
  ('CCS(=O)(=O)n1cc2c3ccc(cc31)OCCCn1ccc(n1)-c1cc(c(C3CC3)cc1N1CCOCC1)Nc1nccc-2n1', 'IC50', '> 1000 nM'),
  ('C=C(C)c1cc2cc(c1N1CCOCC1)-c1cnn(c1)CCCOc1ccc3c(cn(S(=O)(=O)CC)c3c1)-c1nc(ncc1Cl)N2', 'IC50', '> 1000 nM'),
  ('CCS(=O)(=O)n1cc2c3ccc(cc31)OCCCn1ccc(n1)-c1cc(c(OC)cc1N1CCOCC1)Nc1nccc-2n1', 'IC50', '> 1000 nM'),
  ('CCS(=O)(=O)n1cc2c3ccc(cc31)OCCCn1ccc(n1)-c1cc(c(C(F)(F)F)cc1N1CCOCC1)Nc1nccc-2n1', 'IC50', '> 1000 nM'),
  ('CCS(=O)(=O)n1cc2c3ccc(cc31)OCCCn1cc(cn1)-c1cc(c(OC)cc1N1CCC(N3CCN(C)CC3)CC1)Nc1nccc-2n1', 'IC50', '112 nM');
